The reported measurements were obtained from paper PMC5423977.

# Method summary: Plasma pharmacokinetics of BMS-986142, MAD
# Assay type: in vivo, human
# Experimental setup: human, plasma, oral; MAD day 14, 75 mg QD, n = 6; read-out: Tmax median (min, max)
Metric: Tmax (h)
API: value field is a number in h; no unit string.

Would you kindly share the measured Tmax for Cc1c(-c2c(F)cc(C(N)=O)c3[nH]c4c(c23)CC[C@H](C(C)(C)O)C4)cccc1-n1c(=O)c2cccc(F)c2n(C)c1=O ?
2

----------
# Method summary: Plasma pharmacokinetics of BMS-986142, MAD
# Type: in vivo, human
# Experimental setup: both sexes, human, plasma, oral; MAD day 14, 25 mg QD, n = 6; read-out: AUC(TAU) geometric mean (%CV)
Metric: AUC (ng·h/mL)
API: value field is a number in ng·h/mL; no unit string.

Would you kindly share the measured AUC for Cc1c(-c2c(F)cc(C(N)=O)c3[nH]c4c(c23)CC[C@H](C(C)(C)O)C4)cccc1-n1c(=O)c2cccc(F)c2n(C)c1=O ?
539

----------
# Method summary: Plasma pharmacokinetics of BMS-986142, SAD
# Assay type: in vivo
# Experimental setup: human, oral, SAD day 1, 5 mg, n = 6, read-out: Cmax geometric mean (%CV)
Metric: Cmax

Would you kindly share the measured Cmax for Cc1c(-c2c(F)cc(C(N)=O)c3[nH]c4c(c23)CC[C@H](C(C)(C)O)C4)cccc1-n1c(=O)c2cccc(F)c2n(C)c1=O ?
9.03 ng/mL

----------
# Method summary: Plasma pharmacokinetics of BMS-986142, SAD
# Type: in vivo
# Experimental setup: human, oral, SAD day 1, 15 mg, n = 6, read-out: Cmax geometric mean (%CV)
Metric: Cmax (ng/mL)
API: value field is a number in ng/mL; no unit string.

Would you kindly share the measured Cmax for Cc1c(-c2c(F)cc(C(N)=O)c3[nH]c4c(c23)CC[C@H](C(C)(C)O)C4)cccc1-n1c(=O)c2cccc(F)c2n(C)c1=O ?
36.9

----------
# Method summary: Plasma pharmacokinetics of BMS-986142, SAD
# Assay type: in vivo
# Experimental setup: human, oral, SAD day 1, 300 mg, n = 6, read-out: Cmax geometric mean (%CV)
Metric: Cmax (ng/mL)
API: value field is a number in ng/mL; no unit string.

Would you kindly share the measured Cmax for Cc1c(-c2c(F)cc(C(N)=O)c3[nH]c4c(c23)CC[C@H](C(C)(C)O)C4)cccc1-n1c(=O)c2cccc(F)c2n(C)c1=O ?
1080

----------
# Method summary: Effect of BMS-986142 on single-dose plasma PK of MTX (DDI)
# Type: in vivo, human
# Experimental setup: male, human, plasma, oral, Treatment F: BMS-986142 350 mg QD + single-dose methotrexate 7.5 mg (day 8) + leucovorin 15 mg (day 9); read-out: AUC(inf), geometric mean (adjusted)
Metric: AUC(0-inf) (ng·h/mL)
API: value field is a number in ng·h/mL; no unit string.

Would you kindly share the measured AUC(0-inf) for CN(Cc1cnc2nc(N)nc(N)c2n1)c1ccc(C(=O)N[C@@H](CCC(=O)O)C(=O)O)cc1 [methotrexate, reference compound] ?
654

----------
# Method summary: Plasma pharmacokinetics of BMS-986142, SAD
# Type: in vivo
# Experimental setup: human, oral, SAD day 1, 100 mg, n = 6, read-out: AUC(0-T) geometric mean (%CV)
Metric: AUC(0-t) (ng·h/mL)
API: value field is a number in ng·h/mL; no unit string.

Would you kindly share the measured AUC(0-t) for Cc1c(-c2c(F)cc(C(N)=O)c3[nH]c4c(c23)CC[C@H](C(C)(C)O)C4)cccc1-n1c(=O)c2cccc(F)c2n(C)c1=O [BMS-986142] ?
3000
